Kindly state Activity for each of the entries shown.
test system: Plasmodium berghei; assay: Antimalarial activity against Plasmodium berghei ANKA infected in mouse assessed as suppression of parasitaemia at 30 mg/kg, po administered for 3 days measured on day 4 relative to control; assay type: functional
Output spec: scalar in %, unitless text.

query: What Activity appears in the records for this compound with Plasmodium berghei? FC1(F)CCN(C2CCC3(CC2)OOC2(OO3)C3CC4CC(C3)CC2C4)CC1 (centres undefined)
result: 99.8

query: Check C1C2CC3CC1CC(C2)C31OOC2(CCC(NC3CC3)CC2)OO1 (centres undefined) too.
result: 99.7

query: Check C1CCN(C2CCC3(CC2)OOC2(OO3)C3CC4CC(C3)CC2C4)C1 (centres undefined) too.
result: 99.8

query: Check Cc1ccc(S(=O)(=O)O)cc1.NC1CCN(C2CCC3(CC2)OOC2(OO3)C3CC4CC(C3)CC2C4)CC1 (centres undefined) too.
result: 99.9

query: Check CN1CCC(NC2CCC3(CC2)OOC2(OO3)C3CC4CC(C3)CC2C4)CC1 (centres undefined) too.
result: 99.2

query: Check C1CCN(C2CCN(C3CCC4(CC3)OOC3(OO4)C4CC5CC(C4)CC3C5)CC2)CC1 (centres undefined) too.
result: 99.7

query: Check CC(C)(C)NC1CCC2(CC1)OOC1(OO2)C2CC3CC(C2)CC1C3 (centres undefined) too.
result: 98.7

query: Check O=C1CN(C2CCC3(CC2)OOC2(OO3)C3CC4CC(C3)CC2C4)CCN1 (centres undefined) too.
result: 98.8

query: Check C[C@H]1[C@H](OC(=O)CCC(=O)O)O[C@@H]2O[C@@]3(C)CC[C@H]4[C@H](C)CC[C@@H]1[C@@]24OO3 [ARTESUNATE] too.
result: 99.6
